Tested on: human osteosarcoma cells (MG-63)
experiment: Cytotoxicity by SRB assay, MG-63 cells
Assay type: cell-based
setup_conditions: Homo sapiens, MG-63, 72 h, mean ± SD
Let's look at some molecules and their measured IC50.
readout: IC50 (µM)

[[record]]
molecule = "COc1cccc2c1C(=O)c1c(O)c3c(c(O)c1C2=O)C[C@@](O)(C(=O)CO)C[C@@H]3O[C@H]1C[C@H](N)[C@H](O)[C@H](C)O1 [DOX, Doxorubicin, reference compound]"
unit_text = "µM"
readout_relation = "="
meas_value = 9.4

[[record]]
molecule = "N/C(Cc1nc2ccccc2s1)=N\\OC(=O)c1cccnc1 [Present Compound]"
unit_text = "µM"
readout_relation = "<"
meas_value = 4

